- target.of.assay: MAST2, Q6P0Q8
- Sequence (Q6P0Q8 1099-1202): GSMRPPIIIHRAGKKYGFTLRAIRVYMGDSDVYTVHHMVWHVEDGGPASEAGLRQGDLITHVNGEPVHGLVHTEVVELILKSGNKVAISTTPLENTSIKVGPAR
- protocol.notes: holdup assay
- Design: key: below the threshold = too weak to quantify, mostly under pKd 3.1 to 4
- condition.context: plain residues with an end cap or a label only (N-terminal biotin on a linker: ahx)
reported.endpoint: pKd

                         binder  reported_endpoint  recorded_result
0    HSATSVHTSV [MTMR1, Q13613]                pKd             4.38
1   SKKNELFSNL [NHERF1, O14745]                pKd              4.5
2  VNENQKEYFF [CNTNAP4, Q9C0A0]                pKd             5.08
3   YNSFLSVTTV [PDZRN3, Q9UPQ7]                pKd             4.46
4    AKPQPVDSWV [ARVCF, O00192]                pKd             3.86
5  ADENEQVSAV [RAPGEF6, Q8TEU7]                pKd             4.79
